Test: Plasma protein binding, mouse
Type: in vitro ADME
Please use class 1 whenever fraction unbound is not below 0.006, and class 0 whenever it is.

Compound: CNc1ncnc2c1c(-c1ccc3cc(OC4CC4)ccc3c1)nn2CC(C)(C)O [Example 1]
Label Value: class 1

Compound: CNc1ncnc2c1c(-c1ccc3cc(OC(C)C)ccc3c1)cn2CC(C)(C)OC [Example 32]
Label Value: class 1

Compound: CNc1ncnc2c1c(-c1ccc3cc(OC4CC4)ccc3c1)cn2CC(C)(C)O [Example 15]
Label Value: class 0

Compound: CCOc1ccc2cc(-c3nn(CC(C)(C)O)c4ncnc(NC)c34)ccc2c1 [Example 14]
Label Value: class 1

Compound: CCOc1ccc2cc(-c3cn(CC(C)(C)O)c4ncnc(NC)c34)ccc2c1 [Example 11]
Label Value: class 0

Compound: CCOc1ccc2cc(-c3cn(CC(C)(C)OC)c4ncnc(NC)c34)ccc2c1 [Example 18]
Label Value: class 1

Compound: CNc1ncnc2c1c(-c1ccc(-c3ccc(Br)cc3)cc1)cn2CC(C)(C)OC [Example 33]
Label Value: class 1
